// reported inhibition for each item listed
# TARGET DESC: Sentrin-specific protease 6 (Homo sapiens) (UniProt Q9GZR1)
# Sequence (Q9GZR1 628-1112 limits assumed): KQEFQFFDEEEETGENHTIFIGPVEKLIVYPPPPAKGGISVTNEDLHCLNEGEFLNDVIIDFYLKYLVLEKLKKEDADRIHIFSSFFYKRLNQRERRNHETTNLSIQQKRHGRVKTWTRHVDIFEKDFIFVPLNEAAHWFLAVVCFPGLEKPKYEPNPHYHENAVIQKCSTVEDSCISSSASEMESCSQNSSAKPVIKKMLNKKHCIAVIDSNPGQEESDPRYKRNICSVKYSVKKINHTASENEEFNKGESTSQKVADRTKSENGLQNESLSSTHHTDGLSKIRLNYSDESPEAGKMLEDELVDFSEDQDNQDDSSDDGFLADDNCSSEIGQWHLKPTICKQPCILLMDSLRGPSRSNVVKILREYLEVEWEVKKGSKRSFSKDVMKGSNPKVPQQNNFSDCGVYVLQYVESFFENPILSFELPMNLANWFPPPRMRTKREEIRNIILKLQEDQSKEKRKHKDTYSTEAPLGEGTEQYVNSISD
# METHOD NOTES: SENP6 protease inhibitors, primary screen, biochemical, luminescence, uHTS (AID 2599);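 further: plate controls were DMSO wells with enzyme for no effect and DMSO wells lacking enzyme for full effect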
# CONDITION DESCRIPTION: Recombinant SENP6 catalytic domain, aminoluciferin luminescence; at 10 µM; stronger effect = higher value
Out of some 330,000 compounds screened, about 5,800 (1.8%) were called active. The sample as a whole holds a higher share of actives than the screen did.
PROPERTY LABEL: inhibition (%)

* CC(=O)c1cc2c(cc1N)OCO2 | 1.73
* Cc1cc2nc(SCCN3CCOCC3)[nH]c2cc1C | 1.61
* OCC[C@H]1C[C@H](O)[C@@H](O)[C@]2(CCCCO2)O1 | -7.27
* O=C(Nc1ccc(NC(=O)c2ccco2)c(Cl)c1)c1cccc([N+](=O)[O-])c1 | 14.1
* CS(=O)(=O)N(CC(=O)NC1CCCC1)Cc1ccc(F)cc1 | -6.07
* N/C(=N\OC(=O)c1ccc2c(c1)OCO2)c1ccc(Br)cc1 | 46
* COc1ccc(/C=C/c2noc(-c3ccccc3OC(C)=O)n2)cc1 | 89.4
* O=S(=O)(c1ccc(Br)cc1)N1CCC(c2nc3ccccc3[nH]2)CC1 | -3.25
* CC(=O)Oc1ccc(-c2nc3c(C)cccc3c(=O)o2)cc1 | 13.4
* COc1ccc(NC(=O)C2CCC(CNC(=O)[C@@H]3Cc4ccccc4CN3)CC2)cc1 (stereo partly specified) | -1.01
* O=C(OCc1ccc(-c2ccccc2)cc1)c1cccc(O)c1 | 2.41
* O=C(NCCc1ccc(Cl)cc1)C1CCCN1C(=O)NCc1ccccc1 (stereo unspecified) | 19.7
* O=C(c1ccc(F)cc1)n1cc(C(=S)N2CCOCC2)c2ccccc21 | 5.26
* CC1=C/C(=N\OS(=O)(=O)c2ccccc2)C=CC1=O | -4.19
* O=c1oc2ccccc2cc1-c1cn(-c2ccccc2)c(=S)[nH]1 | 94
* COc1ccc(C(CNC(=O)c2cc3c(s2)CCCC3)N2CCOCC2)cc1 (stereo unspecified) | 3.85
* Cc1ccnc(Nc2nc3ccccc3s2)n1 | 78.6
* COc1cc(/C=N/Nc2nn3cnnc3c3ccccc23)cc(OC)c1OC | 2.31
* COc1ccc(C2C=C(c3ccc(Br)cc3)Nc3nc(NS(C)(=O)=O)nn32)cc1 (stereo unspecified) | 3.75
* COc1cccc(-n2c(=S)[nH]c3c(oc4ccccc43)c2=O)c1 | -5.17
* C/C=C/c1ccc(OCC(O)CN2CCCCCCC2)c(OC)c1 (stereo unspecified) | 1.7
* COc1ccc(-c2sc3ccccc3c2-c2ccc(OCCN3CCOCC3)cc2)cc1 | -11.4
* COc1ccc(C(=O)NCC(=O)N/N=C/c2ccc([N+](=O)[O-])s2)cc1OC | 48.9
* CCOc1ccc(NC(=O)CCC(=O)NNC(=O)NC2CCCCC2)cc1 | -9.85
* O=C(OCc1ccccc1F)c1ccc2c(c1)OCCO2 | 95.5
* COC(=O)c1sccc1NC(=O)CC1C(=O)NCCN1C(=O)Nc1ccc(F)cc1F (stereo unspecified) | -25.4
* Cc1cc(C)c(S(=O)(=O)Nc2c(C)n(C)n(-c3ccccc3)c2=O)cc1[N+](=O)[O-] | -1.02
* Cc1cc(C)nc(NC(=O)c2cccc([N+](=O)[O-])c2)c1 | -34.1
* N#CCCN(C(=O)COC(=O)c1ccc2c(c1)OCCO2)c1ccccc1 | 6.71
* CC(C)(CNC(=O)c1ccc(Cl)c(S(=O)(=O)N2CCc3ccccc3C2)c1)N1CCOCC1 | -0.183
* COc1cccc(C(=O)c2cc3ccc(O)cc3oc2=O)c1 | 101
* CCS(=O)(=O)c1ccc(C(=O)NC)c(Cl)c1Cl | 5.83
* COc1ccc(N=C(C)c2sc3ccccc3c2O)cc1 | 82.8
* CCc1ccc2oc(-c3ccc(N)cc3)nc2c1 | 96.1
* CCOC(=O)c1cc2cc3ccccc3cc2oc1=O | 13.2
* O=C(Nc1ccc2oc(-c3ccc4ccccc4c3)nc2c1)c1cccs1 | -13.1
* CNCC(O)c1ccc(O)c(O)c1 (stereo unspecified) | -10.1
* CCC(NC(=O)c1cc(COc2ccc(F)c(F)c2)on1)c1ccncc1 (stereo unspecified) | 12.2
* CCCCN(C(=O)COc1ccc(NC(C)=O)cc1)C1CCS(=O)(=O)C1 (stereo unspecified) | -10.3
* CC(=O)Nc1cccc(-c2nc3ccccc3s2)c1C | -16.1
* S=c1[nH]c(-c2cccs2)cn1-c1ccccc1 | -4.29
* O=C(COC(=O)c1ccc2c(c1)OCCO2)NCc1ccccc1Cl | 3.1
* Cc1coc(C)c1C(=O)CC1(O)C(=O)N(C)c2ccc(Cl)cc21 (stereo unspecified) | 0.041
* Cc1cnc(CN(C)C(=O)C2CCC(=O)N(CCc3cccc(F)c3)C2)[nH]1 (stereo unspecified) | 13.7
* COc1ccc(CCNC(=O)CS(=O)(=O)Cc2nc(-c3ccc(C)cc3)oc2C)cc1OC | 8.83
* Cc1oc2cc(Br)c(O)c(Br)c2c1C(=O)c1ccccc1 | -11.8
